Please go through the items and note down their growth.
Tested on: U251 CNS
Assay Details: NCI-60 one-dose screen, 48 h (100 = growth as untreated, 0 = no growth, -100 = all killed)
Test Parameters: 10 µM unless noted
This is part of a sample that, as a whole, favours compounds with a hit. Of some 83,000 tested, about 20% had one in any assay. Active and inactive are the calls of the source. The calls were made as follows: active = growth percent below 10; inactive = the rest.

Prompt line: Return growth measured with U251 CNS given this molecule: N#Cc1c(-c2ccc(F)cc2)nc(SCc2ccc(F)cc2)nc1N1CCNCC1
Response line: -95.5% (active)

Prompt line: Return growth measured with U251 CNS given this molecule: Nc1ccc(-c2ccc3ncnc(N4CCc5cc(F)c(Cl)cc54)c3c2)cn1
Response line: 43.8% (inactive)

Prompt line: Return growth measured with U251 CNS given this molecule: CN1CCN(C(=O)Oc2cc3c(c4ccccc24)[C@H](CCl)CN3C(=O)c2cc3cc(OCCCN4CCC4)ccc3[nH]2)[C@@H]2CSSC[C@H]21
Response line: -42.8% (active)

Prompt line: Return growth measured with U251 CNS given this molecule: COc1ccc(NC(=O)Cn2c(/C=C/c3ccc([N+](=O)[O-])cc3)nc3ccccc3c2=O)cc1
Response line: 32.2% (inactive)

Prompt line: Return growth measured with U251 CNS given this molecule: N#CC1=C(c2cccs2)Nc2c(c(-c3ccccc3)nn2-c2ccccc2)C12C(=O)Nc1ccccc12 (stereo not given)
Response line: 11.6% (inactive)

Prompt line: Return growth measured with U251 CNS given this molecule: CN(C)c1ccc(/C=C/c2n(Cc3ccc4ccccc4c3)c3ccccc3[n+]2Cc2ccc3ccccc3c2)cc1
Response line: -67.5% (active)

Prompt line: Return growth measured with U251 CNS given this molecule: CCOC(=O)/C(F)=C/C1CC1C1CCN(C(=O)OC(C)(C)C)CC1 (stereo not given)
Response line: 99.8% (inactive)

Prompt line: Return growth measured with U251 CNS given this molecule: COc1ccc(C(=O)C[n+]2cccc3c4ccccc4ccc32)cc1
Response line: 28.2% (inactive)

Prompt line: Return growth measured with U251 CNS given this molecule: OC(c1ccccc1)(c1ccccc1)C1CCN(c2ccc3nnc(Cl)n3n2)CC1
Response line: 45.9% (inactive)

Prompt line: Return growth measured with U251 CNS given this molecule: CCCCNc1ccc2c3c(cccc13)C(=O)N(c1cccc(-c3nn(-c4ccccc4)cc3-c3nc4ccccc4s3)c1)C2=O
Response line: 110% (inactive)

Prompt line: Return growth measured with U251 CNS given this molecule: COc1c(B(O)O)cccc1-c1nc2ccc3cn[nH]c3c2c2c1CCCC2
Response line: 48.1% (inactive)

Prompt line: Return growth measured with U251 CNS given this molecule: N#Cc1ccc(C(=O)NNC(=O)CSc2nc3sc4c(c3c(=O)n2-c2ccc(Cl)cc2)CCCC4)cc1
Response line: 15.9% (inactive)

Prompt line: Return growth measured with U251 CNS given this molecule: COc1ccc(-c2cc(C(=O)OCc3ccc(Br)cc3)nn2-c2ccc(S(C)(=O)=O)cc2)cc1OC
Response line: 86.1% (inactive)

Prompt line: Return growth measured with U251 CNS given this molecule: Cn1cc(-c2cc(N)n3nc(-c4c[nH]c5ccccc45)cc3n2)c2cc(F)ccc21
Response line: -39.4% (active)

Prompt line: Return growth measured with U251 CNS given this molecule: O=C(N/N=C/c1occc1Br)c1[nH]c2ccc(Br)cc2c1-c1ccccc1
Response line: -82.6% (active)

Prompt line: Return growth measured with U251 CNS given this molecule: CCOc1ccccc1[C@H]1C(C(=O)c2ccc(Cl)cc2)C2(N[C@@H]1c1ccccc1)C(=O)Nc1ccc(Br)cc12 (stereo not given in full)
Response line: 0.419% (active)

Prompt line: Return growth measured with U251 CNS given this molecule: Cn1cc(-c2cc(N)n3nc(-c4c[nH]c5ccccc45)cc3n2)c2cc(Cl)ccc21
Response line: -94.7% (active)

Prompt line: Return growth measured with U251 CNS given this molecule: Cc1ccc(C(C)C)cc1Oc1cccc(-c2c(-c3ccc(C(F)(F)F)cc3)ncn2C2CCNCC2)n1
Response line: -85.3% (active)

Prompt line: Return growth measured with U251 CNS given this molecule: COc1ccccc1NC(=O)N/N=C/c1c[nH]c2ccccc12
Response line: 20% (inactive)

Prompt line: Return growth measured with U251 CNS given this molecule: Clc1ccc(-c2nc3c4c(-c5ccccc5)c(-c5ccccc5)n(Cc5ccccc5)c4ncn3n2)cc1
Response line: 15.1% (inactive)

Prompt line: Return growth measured with U251 CNS given this molecule: Cn1cc(-c2cc(N)n3nc(-c4c[nH]c5ccc(F)cc45)cc3n2)c2cccnc21
Response line: -84.7% (active)

Prompt line: Return growth measured with U251 CNS given this molecule: CN1C(=O)C2(C(C#N)=C(c3ccc(Cl)cc3)Nc3c2c(-c2ccccc2)nn3-c2ccccc2)c2ccccc21 (stereo not given)
Response line: 102% (inactive)

Prompt line: Return growth measured with U251 CNS given this molecule: COc1c(F)ccc(C(=O)Nc2ccc3nc(NC(=O)C4CCCN(S(=O)(=O)c5ccc(C(C)(C)C)cc5)C4)sc3c2)c1F (stereo not given)
Response line: 58.8% (inactive)

Prompt line: Return growth measured with U251 CNS given this molecule: Cc1ccc(N=Nc2c(N)nn3c(-c4cc5ccccc5oc4=O)ccnc23)cc1
Response line: 43% (inactive)

Prompt line: Return growth measured with U251 CNS given this molecule: C/C(=N/O)c1ccc(NC(=O)CSc2nnc(-c3ccc4nc(-c5ccc(Cl)cc5)[nH]c4c3)o2)cc1
Response line: -58.8% (active)

Prompt line: Return growth measured with U251 CNS given this molecule: COc1cc(C2CC(c3ccc(S(=O)(=O)NCCNc4nc(N(C)C)nc(N5CCOCC5)n4)cc3)=Nc3c(N)nc(N)nc3N2)cc(OC)c1OC (stereo not given)
Response line: 97.5% (inactive)

Prompt line: Return growth measured with U251 CNS given this molecule: O=c1c(-c2nc(-c3ccccc3)c(-c3ccccc3)[nH]2)coc2ccc(F)cc12
Response line: 47.3% (inactive)

Prompt line: Return growth measured with U251 CNS given this molecule: COc1cc(CNC(=O)C[C@H](C)CCC=C(C)C)ccc1OCc1cn(-c2ccc(Br)cc2)nn1
Response line: 63.4% (inactive)

Prompt line: Return growth measured with U251 CNS given this molecule: O=C(CSc1nc2c(c(=O)[nH]1)CCCC2)Nc1ccccc1C(=O)O
Response line: 103% (inactive)

Prompt line: Return growth measured with U251 CNS given this molecule: Cc1ccccc1Nc1nnc(-c2c[nH]c3ccccc23)o1
Response line: 11.8% (inactive)

---

System: CCRF-CEM leukemia
Assay Details: NCI-60 one-dose screen, 48 h (100 = growth as untreated, 0 = no growth, -100 = all killed)
Test Parameters: 10 µM unless noted
The panel holds about 83,000 compounds, 20% with a hit somewhere; the sample as a whole holds those more often.
Property: growth (%)
Use % as the unit, but write only the number.

Prompt line: Return growth measured with CCRF-CEM leukemia given this molecule: O=C(N=Nc1c(O)[nH]c2ccc(Cl)cc12)c1ccc2nc(-c3ccc(Cl)cc3)[nH]c2c1
Response line: 3.93

Prompt line: Return growth measured with CCRF-CEM leukemia given this molecule: COc1ccc2[nH]c(O)c(N=Nc3nc(-c4ccc(C#N)cc4)cs3)c2c1
Response line: 86.4

Prompt line: Return growth measured with CCRF-CEM leukemia given this molecule: CN1CCc2c(sc3ncnc(N/N=C/c4cccc(Cl)c4Cl)c23)C1
Response line: 4.9

Prompt line: Return growth measured with CCRF-CEM leukemia given this molecule: CN1CCN(CCS(=O)(=O)Nc2cc(-c3ccc4ncnc(Nc5ccc(F)c(Cl)c5)c4c3)cnc2Cl)CC1
Response line: 8.02

Prompt line: Return growth measured with CCRF-CEM leukemia given this molecule: FC(F)(F)c1cc2c(Cl)ncnc2n1CCN1CCCCC1
Response line: 4.18

Prompt line: Return growth measured with CCRF-CEM leukemia given this molecule: Cc1ccc(C(=O)Nc2cc(-n3ccnc3C)cc(C(F)(F)F)c2)cc1C#Cc1cnc2cccnn12
Response line: 5.01

Prompt line: Return growth measured with CCRF-CEM leukemia given this molecule: O=C(CSc1nnc(-c2ccc(-c3nc4ccccc4[nH]3)cc2)o1)Nc1ccccc1
Response line: 59

Prompt line: Return growth measured with CCRF-CEM leukemia given this molecule: C=CCn1c(O)c(N=Nc2nc(-c3cc4ccccc4oc3=O)cs2)c2ccccc21
Response line: 35.8

---

Tested on: RXF 393 renal
Assay Details: NCI-60 one-dose screen, 48 h
Test Parameters: 10 µM unless noted
This is part of a sample that, as a whole, favours compounds with a hit. Of some 83,000 tested, about 20% had one in any assay. Calls of active or inactive are those of the source. How the source made its calls: active means growth percent below 10; inactive means the rest.
I would appreciate it if you answered using one of these outcomes: 1 (active), -1 (inactive)

Prompt line: Please let me know the test result on file for COc1ccc(/C=C/C(=O)c2ccc(S(=O)(=O)NCCNc3nc(N(C)C)nc(N4CCOCC4)n3)cc2)cc1 .
Response line: -1

Prompt line: Please let me know the test result on file for Cc1ccc(C(=O)Nc2ccc(-n3ccnc3)c(C(F)(F)F)c2)cc1C#Cc1cnc2cccnn12 .
Response line: 1

Prompt line: Please let me know the test result on file for COc1cc2cc(C(=O)N3C[C@@H](CCl)c4c3cc(OC(=O)N(CCC(=O)N3CCN(C)CC3)C3CCCCC3)c3ccccc43)[nH]c2c(OC)c1OC .
Response line: 1

Prompt line: Please let me know the test result on file for CCC(=O)c1cc(C(=O)OC)c2ccc3c4ccccc4ccc3n12 .
Response line: -1

Prompt line: Please let me know the test result on file for COc1ccc(-c2cc(C(=O)N=Nc3c(O)[nH]c4ccc(Cl)cc34)c3ccccc3n2)cc1 .
Response line: -1

Prompt line: Please let me know the test result on file for N#C/C(=C/c1ccc([N+](=O)[O-])cc1)c1nnc(NC(=O)c2ccc(-n3c(=O)[nH]c4ccccc4c3=O)cc2)s1 .
Response line: -1

Prompt line: Please let me know the test result on file for CCCCN1C(=O)/C(=C\C(=O)c2cc3ccccc3oc2=O)c2ccccc21 .
Response line: -1

Prompt line: Please let me know the test result on file for O=C(Cn1c(/C=C/c2ccc([N+](=O)[O-])cc2)nc2ccccc2c1=O)Nc1ccccc1 .
Response line: -1

Prompt line: Please let me know the test result on file for Nc1cc(-c2c[nH]c3ccc(Cl)cc23)nc2cc(-c3c[nH]c4ccccc34)nn12 .
Response line: 1

Prompt line: Please let me know the test result on file for O=C1NC(=S)/C(=C/c2cn(-c3ccccc3)nc2-c2ccccc2)S1 .
Response line: 1

Prompt line: Please let me know the test result on file for Nc1nnc(-c2cncc(Br)c2)c(-c2c[nH]c3ccc(Br)cc23)n1 .
Response line: -1

Prompt line: Please let me know the test result on file for COc1ccc(C(=O)C[n+]2cccc3c4ccccc4ccc32)cc1 .
Response line: -1

Prompt line: Please let me know the test result on file for COc1ccc2[nH]c(=O)c(CSc3ccccc3Nc3nccc(-c4ccc5c(c4)OCO5)n3)cc2c1 .
Response line: -1
